tested on: Oocyte; test: Modulation of rat GABA-A alpha1beta2gamma2L receptor expressed in Xenopus oocytes assessed as increase of GABA-induced chloride current at 1 uM by two electrode voltage-clamp method relative to control; assay type: cell-based
// reported fold change (FC) per item
TEST_READOUT: fold change (FC)

molecule=CC(=O)C1=CC[C@H]2[C@@H]3CC[C@H]4C[C@H](O)CC[C@]4(C)[C@H]3C(=O)C[C@]12C test_readout="fold change (FC)" recorded_number=0.97
molecule=C[C@]12CC[C@@H](O)C[C@@H]1CC[C@H]1[C@@H]3CC[C@H](C#N)[C@@]3(C)CC(=O)[C@@H]12 test_readout="fold change (FC)" recorded_number=4.59
molecule=C[C@]12CC[C@@H](O)C[C@@H]1CC[C@@H]1[C@@H]2C(=O)C[C@]2(C)C(C#N)=CC[C@@H]12 test_readout="fold change (FC)" recorded_number=4.07
molecule="CC(=O)[C@H]1CC[C@H]2[C@@H]3CC[C@H]4C[C@H](O)CC[C@]4(C)[C@H]3C(=O)C[C@]12C [ALFAXALONE]" test_readout="fold change (FC)" recorded_number=4.7

* * *

// reported fold change (FC) per item
system: Oocyte; test: Modulation of rat GABA-A alpha1beta2gamma2L receptor expressed in Xenopus oocytes assessed as increase of chloride current at 10 uM by two electrode voltage-clamp method relative to GABA; type: cell-based
TEST_READOUT: fold change (FC)

compound=C[C@]12CC[C@@H](O)C[C@@H]1CC[C@@H]1[C@@H]2C(=O)C[C@]2(C)C(C#N)=CC[C@@H]12 test_readout="fold change (FC)" result=0.21
compound=CC(=O)C1=CC[C@H]2[C@@H]3CC[C@H]4C[C@H](O)CC[C@]4(C)[C@H]3C(=O)C[C@]12C test_readout="fold change (FC)" result=0.08
compound=C[C@]12CC[C@@H](O)C[C@@H]1CC[C@H]1[C@@H]3CC[C@H](C#N)[C@@]3(C)CC(=O)[C@@H]12 test_readout="fold change (FC)" result=0.14
compound="CC(=O)[C@H]1CC[C@H]2[C@@H]3CC[C@H]4C[C@H](O)CC[C@]4(C)[C@H]3C(=O)C[C@]12C [ALFAXALONE]" test_readout="fold change (FC)" result=0.11
